Listed here are compounds together with their documented IC99.
# System: Escherichia phage T7
# ASSAY NAME: Inhibition of T7 RNA polymerase activity assessed as blockade of DNA transcription
Give a bare numeral; the unit µM is implied.

Please tell me: IC99 of `Cc1cccc(NC(=O)c2cccc3c(=O)c4ccccc4[nH]c23)c1` , system Escherichia phage T7?
40

Please tell me: IC99 of `Cc1ccccc1NC(=O)c1cccc2c(=O)c3ccccc3[nH]c12` , system Escherichia phage T7?
80

Please tell me: IC99 of `O=C(Nc1ccccn1)c1cccc2c(=O)c3ccccc3[nH]c12` , system Escherichia phage T7?
40

Please tell me: IC99 of `Cc1cccnc1NC(=O)c1cccc2c(=O)c3ccccc3[nH]c12` , system Escherichia phage T7?
80

---

Listed here are compounds together with their documented IC99.
# Test system: Escherichia phage T7
# ASSAY NAME: Inhibition of T7 RNA polymerase activity assessed as blockade of DNA transcription
Give a bare numeral; the unit µM is implied.

Past entries and their recorded results:
[[record]]
smiles = "O=C(Nc1ccncc1)c1cccc2c(=O)c3ccccc3[nH]c12"
assayed_target = "Escherichia phage T7"
numeric_readout = 20

[[record]]
smiles = "Cc1ccc(NC(=O)c2cccc3c(=O)c4ccccc4[nH]c23)cc1"
assayed_target = "Escherichia phage T7"
numeric_readout = 10


Turning now to a further record.
Please tell me: IC99 of `Cc1ccnc(NC(=O)c2cccc3c(=O)c4ccccc4[nH]c23)c1` , system Escherichia phage T7?
40

---

# ASSAY NAME: Inhibition of HCV NS3 helicase activity by fluorimetric assay
# Set-up: species or system Hepacivirus hominis
Listed here are compounds together with their documented IC50.

Past entries and their recorded results:
[[record]]
smiles = "O=C(Nc1ccccc1)c1cccc2c(=O)c3ccccc3[nH]c12"
result = "> 100 µM"

[[record]]
smiles = "O=C(Nc1ccccn1)c1cccc2c(=O)c3ccccc3[nH]c12"
result = "3.8 µM"


Turning now to a further record.
Give the measured IC50 of `O=C(NCCCN1CCOCC1)c1cccc2c(=O)c3ccccc3[nH]c12` .
> 100 µM

---

# System: Escherichia phage T7
# ASSAY NAME: Inhibition of T7 RNA polymerase activity assessed as blockade of DNA transcription
Listed here are compounds together with their documented IC99.

[[record]]
smiles = "O=C(NCc1ccccn1)c1cccc2c(=O)c3ccccc3[nH]c12"
property_measured = "IC99"
result = "> 100 µM"

[[record]]
smiles = "O=C(NCCCN1CCOCC1)c1cccc2c(=O)c3ccccc3[nH]c12"
property_measured = "IC99"
result = "> 100 µM"


Turning now to a further record.
Give the measured IC99 of `O=C(c1cccc2c(=O)c3ccccc3[nH]c12)N1CCCCC1` .
> 100 µM
